system-name: human Claudin18.2 (human)
assay-overview: cell-based or functional assay

binder | CDC % Relative activity (%)
414H6G2 (antibody, V domains shown) VH: DVQLVESGGGLVQPGGSRKLSCAASGFTFSGFGMHWIRQTAEKGLEWVAYISSGSRPIYYADTVQGRFTISRDNPKNTLFLQMTSLRSEDTAMYFCARFYYGNSFDHWGQGTLVTVSA VL: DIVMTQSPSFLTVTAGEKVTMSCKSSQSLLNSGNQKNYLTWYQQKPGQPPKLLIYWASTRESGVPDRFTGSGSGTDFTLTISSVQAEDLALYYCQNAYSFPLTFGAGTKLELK | 678
419B5G9 (antibody, V domains shown) VH: DVQLVESGGGLVQPGGSRKLSCAASGFTFSTFGMHWVRQAPEKGLEWVAYISGGSTTIFYADTVKGRFTISRDNPKNTLFLQMTSVRSEDTAMYYCARFYYGNSFAYWGPGTLVTVST VL: DIVMTQSPSSLTVTAGEKVTMSCKSSQSLLNSGNQKNYLTWYQQKPGQPPKMLIYWASTRESGVPDRFTGSGSGTDFTLTISSVQAEDLAVYYCQNAYSYPLTFGAGTKLELK | 349
425C6D3 (antibody, V domains shown) VH: DVQLVESGGGLVQPGGSRKLSCAASGFTFSGFGMHWIRQTPEKGLEWVAYISSGSRPIYYADTVQGRFTISRDNPKNTLFLQMTSLRSEDTAMYFCARFYYGNSFDHWGQGTLVTVSS VL: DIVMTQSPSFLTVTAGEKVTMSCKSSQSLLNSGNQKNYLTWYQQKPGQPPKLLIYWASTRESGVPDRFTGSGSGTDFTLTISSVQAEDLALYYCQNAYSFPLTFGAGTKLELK | 96.6
